# Study Target: human KHK-C (Homo sapiens (Human))
# Sequence (P50053 whole entry): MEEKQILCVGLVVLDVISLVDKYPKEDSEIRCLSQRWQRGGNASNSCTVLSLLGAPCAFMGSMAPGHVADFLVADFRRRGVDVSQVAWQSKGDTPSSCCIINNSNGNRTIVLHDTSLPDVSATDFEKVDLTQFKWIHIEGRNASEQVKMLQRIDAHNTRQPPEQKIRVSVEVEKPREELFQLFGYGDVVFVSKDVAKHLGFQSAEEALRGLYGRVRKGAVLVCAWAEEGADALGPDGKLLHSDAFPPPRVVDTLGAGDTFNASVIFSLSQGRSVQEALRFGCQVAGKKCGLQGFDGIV
# Test: KHK Biochemical Assay (IC50), ADP-Glo, KHK-C
# Condition: average of at least two separate assays
Measure: IC50 (nM)

a: C[C@H]1CCN1c1nc2c(c(-c3ccc4c(c3)[C@]3(C[C@H]3C#N)C(=O)N4)n1)CCC2 (mixture of isomers) [Example 410]
b: CC1(C)CC(NS(C)(=O)=O)c2ccc(-c3nc(N4CC[C@@H]4CF)nc4c3CCC4(F)F)cc21 (stereo partly drawn) [Example 629]
c: C[C@H](NS(C)(=O)=O)c1ccc(-c2nc(N3CC[C@@H]3C)nc3c2CCC3(F)F)cc1 [Example 750]
Prompt: Reorder the records above by IC50 so that values decrease. # respond with the labels, arranged in the requested order
Response: a, c, b

Origin of values: patent US12410160B2
